- Test Description: Permeability from apical to basolateral side in human Caco2/TC7 cells at 5 uM
- Format: ADME, cell-based
- Condition Context: Caco-2, read-out: permeability
Recorded Metric: Papp A→B at 5 µM

• NC(=O)c1cc(Cl)c2c(Cl)c(C3CC3)n(C3CCCNC3)c2n1 (racemic) = 1.9 ×10⁻⁶ cm/s
• NC(=O)c1cc(Cl)c2c(Cl)c(I)n(C3CCCNC3)c2n1 (racemic) = 2.6 ×10⁻⁶ cm/s
• NC(=O)c1cc(Cl)c2c(Cl)c(C3CC3)n([C@H]3CCCNC3)c2n1 = 3.8 ×10⁻⁶ cm/s
• NC(=O)c1cc(Cl)c2c(Cl)c(C3CC3)n([C@@H]3CCCNC3)c2n1 = 3.6 ×10⁻⁶ cm/s
• NC(=O)c1cc(Cl)c2c(Cl)c(C#CC3CC3)n(C3CCCNC3)c2n1 (racemic) = 3 ×10⁻⁶ cm/s
